B1: HNF4A (parent)
chain: RFSRQCVVDKDKRNQCRYCRLKKC

Variants of: B1
ASSAY PROTOCOL: protein stability index of a GFP-peptide fusion (GPS, HEK-293T) (PSI 1-6); higher = more stable;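 note: lentivirally expressed fusions sorted by FACS into six bins by GFP to DsRed ratio, PSI derived from sequencing read proportions per bin multiplied by bin number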
ASSAY CONDITIONS: c terminus: a fixed tail appended
Recorded protein stability index, one value per entry.

[
  {
    "SEQUENCE ENTRY": "RFSRQCVVGKDKRNQCRYCRLKKC [D9G]",
    "protein stability index": 3.04
  },
  {
    "SEQUENCE ENTRY": "RFSRQCVVDKDKRNQCRYCKLKKC [R20K]",
    "protein stability index": 2.58
  },
  {
    "SEQUENCE ENTRY": "PFSRQCVVDKDKRNQCRYCRLKKC [R1P]",
    "protein stability index": 2.5
  },
  {
    "SEQUENCE ENTRY": "RFSRQCVVDKDKRNQWRYCRLKKC [C16W]",
    "protein stability index": 3.37
  },
  {
    "SEQUENCE ENTRY": "RFSRQCVVDKDKRNQCRYCRLKKY [C24Y]",
    "protein stability index": 2.77
  },
  {
    "SEQUENCE ENTRY": "RFSRQCVVDKDKRNQCRYCRTKKC [L21T]",
    "protein stability index": 2.93
  },
  {
    "SEQUENCE ENTRY": "RFSRQCVVDKDYRNQCRYCRLKKC [K12Y]",
    "protein stability index": 2.25
  },
  {
    "SEQUENCE ENTRY": "RFSRQCVVDKDKRNQCRYCRLSKC [K22S]",
    "protein stability index": 2.73
  },
  {
    "SEQUENCE ENTRY": "RFSRQCVVDKDKRNQCRYCRLKKK [C24K]",
    "protein stability index": 2.62
  },
  {
    "SEQUENCE ENTRY": "RFSRQCVVDNDKRNQCRYCRLKKC [K10N]",
    "protein stability index": 2.43
  },
  {
    "SEQUENCE ENTRY": "RFSRQCVVDKDKRNQCRPCRLKKC [Y18P]",
    "protein stability index": 3
  },
  {
    "SEQUENCE ENTRY": "RFSRQFVVDKDKRNQCRYCRLKKC [C6F]",
    "protein stability index": 2.89
  },
  {
    "SEQUENCE ENTRY": "RFSRQCVVDKQKRNQCRYCRLKKC [D11Q]",
    "protein stability index": 2.63
  },
  {
    "SEQUENCE ENTRY": "RFSRQCVVDKDKRNQCRYCRIKKC [L21I]",
    "protein stability index": 3.22
  },
  {
    "SEQUENCE ENTRY": "RFSRQGVVDKDKRNQCRYCRLKKC [C6G]",
    "protein stability index": 2.87
  },
  {
    "SEQUENCE ENTRY": "RFSRQCVVDKDKRNQCRYCRLKYC [K23Y]",
    "protein stability index": 2.24
  },
  {
    "SEQUENCE ENTRY": "RFSRQPVVDKDKRNQCRYCRLKKC [C6P]",
    "protein stability index": 2.72
  }
]
